- SUBJECT_OF_TEST: GABP alpha (MBP fusion from pMAL-C2);GABP beta (MBP fusion from pMAL-C2) (Homo sapiens;Homo sapiens, UniProt Q06546;Q06547 1-454;1-395, |)
- Sequence (Q06546 whole entry, chain 1 of 2, the tested form may be a part): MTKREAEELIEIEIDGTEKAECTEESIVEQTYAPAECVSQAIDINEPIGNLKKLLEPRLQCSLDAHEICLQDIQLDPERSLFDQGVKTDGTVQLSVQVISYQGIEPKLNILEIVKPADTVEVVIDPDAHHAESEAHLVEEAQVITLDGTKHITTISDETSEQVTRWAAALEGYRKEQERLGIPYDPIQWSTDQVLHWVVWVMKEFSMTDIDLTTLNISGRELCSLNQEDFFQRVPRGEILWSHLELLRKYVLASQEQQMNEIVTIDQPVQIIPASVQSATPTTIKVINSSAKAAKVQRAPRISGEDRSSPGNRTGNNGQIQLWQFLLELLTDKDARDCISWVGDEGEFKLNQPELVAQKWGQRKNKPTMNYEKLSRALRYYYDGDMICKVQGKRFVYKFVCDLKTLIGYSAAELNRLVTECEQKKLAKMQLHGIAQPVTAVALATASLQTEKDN
- Sequence (Q06547 whole entry, chain 2 of 2, the tested form may be a part): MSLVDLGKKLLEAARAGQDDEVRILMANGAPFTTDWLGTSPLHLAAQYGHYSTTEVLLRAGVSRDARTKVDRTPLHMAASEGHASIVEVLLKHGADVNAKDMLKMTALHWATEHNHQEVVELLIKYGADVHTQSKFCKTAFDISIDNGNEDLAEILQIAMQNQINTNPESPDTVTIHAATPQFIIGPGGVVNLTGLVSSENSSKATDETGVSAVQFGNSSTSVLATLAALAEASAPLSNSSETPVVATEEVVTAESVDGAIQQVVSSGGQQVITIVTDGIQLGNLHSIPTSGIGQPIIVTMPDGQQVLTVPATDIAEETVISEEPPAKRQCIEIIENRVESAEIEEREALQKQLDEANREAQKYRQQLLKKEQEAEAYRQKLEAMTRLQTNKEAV
- ASSAY_NOTES: EMSA; Bandshift conditions as in ref [16], not given; 6% nondenaturing acrylamide gel; recombinant proteins eluted in 25 mM HEPES pH 7.6, 0.1 mM EDTA, 40 mM KCl, 10%
- EXPERIMENTAL_CONTEXT: protein: recombinant;recombinant; tags: MBP N-terminal (pMAL-C2 vector);MBP N-terminal (pMAL-C2 vector); copies: 1;1; label: 32P
QUANTITY_MEASURED: binding result

// below: answered binders
[[record]]
binder = "UPFR6mUP (dsDNA) DNA 1: CCTTCTTTTAAGTTTCAACGGAAAAGCGCGGGAATTACAG DNA 2: CTGTAATTCCCGCGCTTTTCCGTTGAAACTTAAAAGAAGG"
quantity_measured = "binding result"
reading = "no binding"

[[record]]
binder = "UPFR6mUS (dsDNA) DNA 1: CCTTGGTTTCCGTGGCGGTTTAAAAGCGCGGGAATTACAG DNA 2: CTGTAATTCCCGCGCTTTTAAACCGCCACGGAAACCAAGG"
quantity_measured = "binding result"
reading = "binds"

[[record]]
binder = "UP (dsDNA) DNA 1: CCTTGGTTTCCGTGGCAACGGAACCTT DNA 2: AAGGTTCCGTTGCCACGGAAACCAAGG"
quantity_measured = "binding result"
reading = "binds"

[[record]]
binder = "UPFR6mGAmUS (dsDNA) DNA 1: CCTTGGTTTAAGTGGCGGTTTAAAAGCGCGGGAATTACAG DNA 2: CTGTAATTCCCGCGCTTTTAAACCGCCACTTAAACCAAGG"
quantity_measured = "binding result"
reading = "no binding"

[[record]]
binder = "UPFR6 (dsDNA) DNA 1: CCTTGGTTTCCGTGGCAACGGAAAAGCGCGGGAATTACAG DNA 2: CTGTAATTCCCGCGCTTTTCCGTTGCCACGGAAACCAAGG"
quantity_measured = "binding result"
reading = "binds"


# evaluate next
Query: Returns the measured binding result for the input binder. Input: UPFR6mGA (dsDNA) DNA 1: CCTTGGTTTAAGTGGCAACGGAAAAGCGCGGGAATTACAG DNA 2: CTGTAATTCCCGCGCTTTTCCGTTGCCACTTAAACCAAGG
Response: no binding
